biological target: hSULT1A2 (Homo sapiens, UniProt P50226); construct: 6-histidine tag (N); TEV site (N); made in house; host or cells: Escherichia coli BL21 (DE3), pET29a(+); test: Fluorescence-based microplate inhibition assay, hSULT1A2-catalyzed HN-241 4-O-sulfation; type: biochemical; settings: 0.25 h, read-out: Residue activity (%) hSULT1A2
Sequence (P50226 whole entry): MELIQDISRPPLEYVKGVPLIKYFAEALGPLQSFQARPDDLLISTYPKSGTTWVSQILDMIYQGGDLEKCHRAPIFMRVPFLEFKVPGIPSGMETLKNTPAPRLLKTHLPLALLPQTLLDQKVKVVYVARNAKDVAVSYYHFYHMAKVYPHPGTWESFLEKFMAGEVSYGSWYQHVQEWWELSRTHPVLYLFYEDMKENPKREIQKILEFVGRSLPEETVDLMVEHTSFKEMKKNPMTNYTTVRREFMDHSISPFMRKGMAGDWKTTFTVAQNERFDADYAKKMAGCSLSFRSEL
Quick reference: remaining activity at 10 µM of the listed items.
Readout name: remaining activity at 10 µM (%)

>>> obs_value("C=C(C)[C@H]1Cc2c(ccc3c2O[C@@H]2COc4cc(OC)c(OC)cc4[C@@H]2C3=O)O1")
102
>>> obs_value("C[C@]12CC[C@H](O)C[C@H]1CC[C@@H]1[C@@H]2CC[C@]2(C)[C@@H](c3ccc(=O)oc3)CC[C@]12O")
106
>>> obs_value("COc1cc([C@@H]2c3cc4c(cc3[C@H](O)[C@H]3COC(=O)[C@H]23)OCO4)cc(OC)c1OC")
88.9
>>> obs_value("C[C@]12CC[C@H](O)C[C@H]1CC[C@@H]1[C@@H]2CC[C@]2(C)[C@@H](c3ccc(=O)oc3)C[C@H]3O[C@]132")
99.2

====

molecular target: hSULT1A1 (Homo sapiens); construct: 6-histidine tag (N); TEV site (N); made in house; host or cells: Escherichia coli BL21 (DE3), pET29a(+); test: Fluorescence-based microplate inhibition assay, hSULT1A1-catalyzed HN-241 4-O-sulfation; type: biochemical; details: test compound 1 μM, HN-241 1 μM, 15 min
Sequence (P50225 whole entry): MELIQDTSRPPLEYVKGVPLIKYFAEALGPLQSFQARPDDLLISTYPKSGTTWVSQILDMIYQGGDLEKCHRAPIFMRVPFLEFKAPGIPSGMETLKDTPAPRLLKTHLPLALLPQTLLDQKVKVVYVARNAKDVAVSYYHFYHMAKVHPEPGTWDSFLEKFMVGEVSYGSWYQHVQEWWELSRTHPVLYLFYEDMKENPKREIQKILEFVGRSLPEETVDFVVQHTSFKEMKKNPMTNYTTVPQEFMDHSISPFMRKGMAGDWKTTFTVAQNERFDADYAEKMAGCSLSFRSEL
Classification field: satisfied = Residue activity (%) hSULT1A1 at or over 60%; not satisfied = Residue activity (%) hSULT1A1 under 60%.

>>> label_class("COc1cc2c(=O)c(-c3ccc(O)cc3)coc2cc1O[C@@H]1O[C@H](CO)[C@@H](O)[C@H](O)[C@H]1O [Glycitin]")
"satisfied"
>>> label_class("O=c1cc(-c2ccccc2)oc2ccc(O)c(O)c12 [5,6-Dihydroxy-2-phenylchromen-4-one]")
"not satisfied"
>>> label_class("O=C1CCC[C@@H]2[C@H]3CCC[N@+]4([O-])CCC[C@@H](CN12)[C@@H]34 [Ammothamnine]")
"satisfied"
>>> label_class("CC(C)=CCc1c(-c2ccc(O)cc2O)oc2c(CC=C(C)C)c(O)cc(O)c2c1=O [Mulberrin]")
"not satisfied"
>>> label_class("O=C1C=CC(=O)c2cc3ccccc3cc21 [1,4-Anthracenedione]")
"not satisfied"
>>> label_class("COc1ccc(-c2coc3cc(O[C@@H]4O[C@H](CO)[C@@H](O)[C@H](O)[C@H]4O)ccc3c2=O)cc1O [Calycosin-7-O-β-D-glucoside]")
"not satisfied"
>>> label_class("C=C(CCC=C(C)C)[C@H]1CC[C@]2(C)[C@@H]1[C@H](O)C[C@@H]1[C@@]3(C)CC[C@H](O)C(C)(C)[C@@H]3[C@@H](O[C@@H]3O[C@H](CO)[C@@H](O)[C@H](O)[C@H]3O[C@@H]3O[C@@H](C)[C@H](O)[C@@H](O)[C@H]3O)C[C@]12C [Ginsenoside Rg6]")
"satisfied"
>>> label_class("Cc1c2[n+](cc3cc4c(cc13)OCO4)CCc1cc3c(cc1-2)OCO3 [Worenine]")
"satisfied"
>>> label_class("COc1cc2c(c(OC)c1OC)-c1c(cc(OC)c(OC)c1OC)C[C@](C)(O)[C@@H](C)C2 [Schisandrin]")
"satisfied"
>>> label_class("COc1cc(-c2oc3cc(O)cc(O)c3c(=O)c2O[C@@H]2O[C@H](CO[C@@H]3O[C@@H](C)[C@H](O)[C@@H](O)[C@H]3O)[C@@H](O)[C@H](O)[C@H]2O)ccc1O [Narcissoside]")
"satisfied"

====

target: hSULT1A1 (Homo sapiens); construct: 6-histidine tag (N); TEV site (N); made in house; host or cells: Escherichia coli BL21 (DE3), pET29a(+); assay: Fluorescence-based microplate inhibition assay, hSULT1A1-catalyzed HN-241 4-O-sulfation; assay type: biochemical; details: test compound 1 μM, HN-241 1 μM, 15 min; read-out: Residue activity (%) hSULT1A1;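 also: reaction started with 200 µM PAPS at 37 °C, fluorescence read continuously (Ex 350 nm, Em 450 nm), activity expressed relative to DMSO-only control without inhibitor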
activity at 1 µM for assorted molecules
Readout name: activity at 1 µM (%)

>>> obs_value("O=C(O[C@@H]1[C@@H](O)[C@H](Oc2cc(O)c(C(=O)CCc3ccccc3)c(O)c2)O[C@@H]2COC(=O)c3cc(O)c(O)c(O)c3-c3c(cc(O)c(O)c3O)C(=O)O[C@@H]12)c1cc(O)c(O)c(O)c1")
12
>>> obs_value("COc1ccc(-c2cc(=O)c3c(O)cc(O)cc3o2)cc1")
0.38
>>> obs_value("O=C(O)c1cc(O)c2c(c1)C(=O)c1cccc(O)c1C2=O")
59.4
>>> obs_value("COc1c(/C=C/C(=O)c2ccc(O)c(CC=C(C)C)c2)ccc(O)c1O")
0
>>> obs_value("CC(C)[C@]12O[C@H]1[C@@H]1O[C@]13[C@]1(O[C@H]1C[C@H]1C4=C(CC[C@@]13C)C(=O)OC4)[C@@H]2O [Triptolide]")
109
>>> obs_value("CC1(C)CC[C@]2(C(=O)O)CC[C@]3(C)C(=CC[C@@H]4[C@@]5(C)CC[C@H](O)C(C)(C)[C@@H]5CC[C@]43C)[C@@H]2C1")
127
>>> obs_value("CCCCCCCCCCCCCCCC(=O)O")
93.1

====

molecular target: hSULT1A3 (Homo sapiens); construct: 6-histidine tag (N); TEV site (N); test: Fluorescence-based microplate inhibition assay, hSULT1A3-catalyzed HN-241 4-O-sulfation; conditions: hSULT1A3-catalyzed HN-241 4-O-sulfation
Sequence (P0DMM9 whole entry): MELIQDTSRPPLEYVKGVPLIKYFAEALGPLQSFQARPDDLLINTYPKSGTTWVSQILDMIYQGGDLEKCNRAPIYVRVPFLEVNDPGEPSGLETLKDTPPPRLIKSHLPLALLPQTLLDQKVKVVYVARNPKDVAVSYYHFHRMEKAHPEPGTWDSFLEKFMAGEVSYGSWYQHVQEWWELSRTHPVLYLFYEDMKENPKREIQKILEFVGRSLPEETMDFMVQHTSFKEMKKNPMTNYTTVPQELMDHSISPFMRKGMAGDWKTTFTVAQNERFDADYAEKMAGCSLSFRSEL
pIC50: −log10 of the molar value.
Readout name: pIC50

>>> obs_value("COc1cc2c(c(OC)c1OC)C(=O)c1c(cc(C)c(O)c1OC)C2=O")
5.82
>>> obs_value("O=c1cc(-c2ccccc2)oc2cc(O)c(O)c(O)c12")
5.20
>>> obs_value("COc1ccc(-c2cc(=O)c3c(O)c(OC)c(O)cc3o2)cc1")
5.36
>>> obs_value("O=c1cc(-c2ccc(Oc3c(O)cc4oc(-c5ccc(O)cc5)cc(=O)c4c3O)cc2)oc2cc(O)cc(O)c12")
5.67

====

Listing of entries alongside the reported remaining activity at 10 µM.
biological target: hSULT1A2 (Homo sapiens); construct: 6-histidine tag (N); TEV site (N); made in house; host or cells: Escherichia coli BL21 (DE3), pET29a(+); assay: Fluorescence-based microplate inhibition assay, hSULT1A2-catalyzed HN-241 4-O-sulfation; format: biochemical; conditions: 0.25 h; test compound 10 μM, HN-241 5 μM, 15 min; read-out: Residue activity (%) hSULT1A2
Readout name: remaining activity at 10 µM (%)

>>> obs_value("O=c1cc(-c2ccc(Oc3c(O)cc4oc(-c5ccc(O)cc5)cc(=O)c4c3O)cc2)oc2cc(O)cc(O)c12")
0
>>> obs_value("CC(C)[C@]12O[C@H]1[C@@H]1O[C@]13[C@]1(O[C@H]1C[C@H]1C4=C(CC[C@@]13C)C(=O)OC4)[C@@H]2O [Triptolide]")
119
>>> obs_value("O=C(O[C@@H]1[C@@H](O)[C@H](Oc2cc(O)c(C(=O)CCc3ccccc3)c(O)c2)O[C@@H]2COC(=O)c3cc(O)c(O)c(O)c3-c3c(cc(O)c(O)c3O)C(=O)O[C@@H]12)c1cc(O)c(O)c(O)c1")
3.29
>>> obs_value("CC(C)=CCC[C@](C)(O)[C@H]1CC[C@]2(C)[C@@H]1[C@H](O)C[C@@H]1[C@@]3(C)CC[C@H](O)C(C)(C)[C@@H]3[C@@H](O[C@@H]3O[C@H](CO)[C@@H](O)[C@H](O)[C@H]3O[C@@H]3O[C@@H](C)[C@H](O)[C@@H](O)[C@H]3O)C[C@]12C [Ginsenoside Rg2]")
106
>>> obs_value("COc1cc(O)c(CC=C(C)C)c2c1C(=O)CC(c1ccc(O)cc1)O2 (stereo not shown)")
68.4
>>> obs_value("C[C@@H]1[C@H]2[C@H](O[C@@H]3O[C@H](CO)[C@@H](O)[C@H](O)[C@H]3O)OC=C(C(=O)O)[C@H]2C[C@@H]1O")
98.6
>>> obs_value("C[C@@H]1O[C@@H](OC[C@H]2O[C@@H](Oc3cc(O)c4c(c3)O[C@H](c3ccc(O)c(O)c3)CC4=O)[C@H](O)[C@@H](O)[C@@H]2O)[C@H](O)[C@H](O)[C@H]1O")
111
>>> obs_value("COc1ccc(-c2cc(=O)c3c(O)cc(O)cc3o2)cc1O")
57
>>> obs_value("C/C=C(/C)C(=O)O[C@H]1c2cc(OC)c(OC)c(OC)c2-c2c(cc3c(c2OC)OCO3)C[C@H](C)[C@]1(C)O")
109
>>> obs_value("COc1ccc(-c2cc(=O)c3c(O)c(OC)c(O)cc3o2)cc1")
0
>>> obs_value("O=C(O)c1cc(O)c2c(c1)C(=O)c1cccc(O)c1C2=O")
0.83
>>> obs_value("O=c1c(O)c(-c2cc(O)c(O)c(O)c2)oc2cc(O)cc(O)c12")
4.43
>>> obs_value("O=c1cc(-c2ccc(O)cc2)oc2c([C@@H]3O[C@H](CO)[C@@H](O)[C@H](O)[C@H]3O)c(O)cc(O)c12")
115
>>> obs_value("COc1cc(O)cc2c1C(=O)C[C@@H](c1ccccc1)O2")
49.5
>>> obs_value("COc1c(O)cc2c(c1O)C(=O)c1c(cc(C)c(O)c1OC)C2=O [Aurantio-obtusin]")
0
>>> obs_value("O=c1c(O)c(-c2ccc(O)c(O)c2)oc2cc(O)cc(O)c12 [Quercetin, reference compound]")
0.1
>>> obs_value("CC1(C)[C@@H](O[C@H]2O[C@H](C(=O)O)[C@@H](O)[C@H](O)[C@H]2O[C@@H]2O[C@H](C(=O)O)[C@@H](O)[C@H](O)[C@H]2O)CC[C@]2(C)[C@H]3C(=O)C=C4[C@@H]5C[C@@](C)(C(=O)O)CC[C@]5(C)CC[C@@]4(C)[C@]3(C)CC[C@@H]12")
112
>>> obs_value("CC(C)=CCC[C@](C)(O)[C@H]1CC[C@]2(C)[C@@H]1[C@H](O)C[C@@H]1[C@@]3(C)CC[C@H](O)C(C)(C)[C@@H]3[C@@H](O[C@@H]3O[C@H](CO)[C@@H](O)[C@H](O)[C@H]3O)C[C@]12C [Ginsenoside Rh1]")
96.5
>>> obs_value("CC(C)=CCc1cc(-c2oc3cc(O)cc(O)c3c(=O)c2O)ccc1O")
0.03
>>> obs_value("O=C1c2cccc(O)c2C(=O)c2c(O)cc(CO)cc21")
0
>>> obs_value("Oc1cc(O)c2c(c1)O[C@@H](c1ccc(O)c(O)c1)[C@H](O)C2 [(-)-Catechin]")
101
>>> obs_value("Cc1cc(O)c2c(c1)C(=O)c1cc(O)cc(O)c1C2=O")
0
>>> obs_value("COc1cc(-c2oc3cc(O)cc(O)c3c(=O)c2O)ccc1O")
0.39
>>> obs_value("O=C1c2c(O)cc(O)cc2OC(c2ccc(O)c(O)c2)C1O (stereo not shown)")
41.7
>>> obs_value("C=C(C)[C@@H]1CC[C@]2(C(=O)O)CC[C@]3(C)[C@H](CC[C@@H]4[C@@]5(C)CC[C@@H](O)C(C)(C)[C@@H]5CC[C@]43C)[C@@H]12 [Epibetulinic acid]")
111
>>> obs_value("COc1cc2c(c(OC)c1OC)C(=O)c1c(cc(C)c(O)c1OC)C2=O")
0.09
>>> obs_value("CC(C)=CC[C@@H](O)C1=CC(=O)c2c(O)ccc(O)c2C1=O")
18.6
>>> obs_value("C/C1=C\\CC(C)(C)/C=C/C(=O)/C(C)=C/CC1")
113
